subject of test: ABL2 (Homo sapiens)
Construct: purchased Eurofins DiscoverX KINOMEscan (scanTK)
Sequence (P42684 whole entry): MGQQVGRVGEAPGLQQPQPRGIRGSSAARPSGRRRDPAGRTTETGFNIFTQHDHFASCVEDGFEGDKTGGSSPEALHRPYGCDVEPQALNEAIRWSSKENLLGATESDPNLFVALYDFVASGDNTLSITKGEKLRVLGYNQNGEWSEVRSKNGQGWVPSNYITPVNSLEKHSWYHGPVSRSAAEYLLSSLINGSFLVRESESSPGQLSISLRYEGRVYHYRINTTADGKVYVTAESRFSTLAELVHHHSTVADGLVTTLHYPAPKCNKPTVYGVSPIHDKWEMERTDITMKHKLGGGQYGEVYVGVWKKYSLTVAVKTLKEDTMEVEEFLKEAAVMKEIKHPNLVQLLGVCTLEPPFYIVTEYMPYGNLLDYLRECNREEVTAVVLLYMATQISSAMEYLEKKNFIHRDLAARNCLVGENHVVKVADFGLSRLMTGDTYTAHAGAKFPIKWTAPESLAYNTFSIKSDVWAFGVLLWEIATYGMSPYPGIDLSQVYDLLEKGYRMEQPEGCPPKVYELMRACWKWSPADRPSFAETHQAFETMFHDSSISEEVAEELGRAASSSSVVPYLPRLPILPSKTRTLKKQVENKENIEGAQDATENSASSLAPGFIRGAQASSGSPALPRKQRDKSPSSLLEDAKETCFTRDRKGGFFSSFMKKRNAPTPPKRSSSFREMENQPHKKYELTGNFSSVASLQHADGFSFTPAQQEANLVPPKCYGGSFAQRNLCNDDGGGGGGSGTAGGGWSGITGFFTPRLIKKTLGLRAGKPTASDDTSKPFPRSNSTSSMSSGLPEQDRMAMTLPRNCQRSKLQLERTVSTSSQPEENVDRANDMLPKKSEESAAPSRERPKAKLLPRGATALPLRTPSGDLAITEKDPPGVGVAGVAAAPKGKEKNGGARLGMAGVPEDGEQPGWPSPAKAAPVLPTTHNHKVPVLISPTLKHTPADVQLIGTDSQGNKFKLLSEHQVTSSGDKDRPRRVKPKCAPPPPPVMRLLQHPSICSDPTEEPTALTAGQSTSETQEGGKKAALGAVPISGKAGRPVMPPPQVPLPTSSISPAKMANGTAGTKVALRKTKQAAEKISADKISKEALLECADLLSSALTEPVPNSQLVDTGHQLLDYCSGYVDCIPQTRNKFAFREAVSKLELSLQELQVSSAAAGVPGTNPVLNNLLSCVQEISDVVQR
run description: KINOMEscan ScanTK
Type: binding
condition info: @1000nM, read-out: %Control
Rule: remaining binding at 1 µM below 80% gives Fulfilled. Equal to or above 80% gives Not fulfilled.

Recorded results for 3 compounds are shown here.
[
  {
    "compound": "CCOC(=O)c1cnc(S(C)(=O)=O)nc1N1CCC[C@@H](n2nc(-c3ccc(Oc4ccccc4)cc3)c3c(N)ncnc32)C1",
    "assigned class": "Not fulfilled"
  },
  {
    "compound": "CNC(=O)c1cnc(S(C)(=O)=O)nc1N1CCCC(n2nc(-c3ccc(Oc4ccccc4)cc3)c3c(N)ncnc32)C1 (centres unmarked)",
    "assigned class": "Not fulfilled"
  },
  {
    "compound": "C=CC(=O)N1CCC[C@@H](n2nc(-c3ccc(Oc4ccccc4)cc3)c3c(N)ncnc32)C1 [Compound 1g, Ibrutinib, reference compound]",
    "assigned class": "Fulfilled"
  }
]

Consider the record given below.
Report whether reported remaining binding at 1 µM is lower than 80% (strictly) for Cc1cnc(S(C)(=O)=O)nc1N1CCCC(n2nc(-c3ccc(Oc4ccccc4)cc3)c3c(N)ncnc32)C1 (centres unmarked)
Fulfilled
